// provenance: PubChem BioAssay (Tox21)

target: Muscarinic acetylcholine receptor M1 (Homo sapiens) (UniProt P11229); assay: Cholinergic receptor muscarinic 1 (CHRM1) small molecule antagonists, cell-based qHTS assay (AID 1963588); settings: CHRM1-CHO antagonist mode, calcium flux fluorescence; series mostly up to 61.5 µM; further: nearly all actives have a fitted effect of over 40% in size
Sequence (P11229 whole entry, looked up): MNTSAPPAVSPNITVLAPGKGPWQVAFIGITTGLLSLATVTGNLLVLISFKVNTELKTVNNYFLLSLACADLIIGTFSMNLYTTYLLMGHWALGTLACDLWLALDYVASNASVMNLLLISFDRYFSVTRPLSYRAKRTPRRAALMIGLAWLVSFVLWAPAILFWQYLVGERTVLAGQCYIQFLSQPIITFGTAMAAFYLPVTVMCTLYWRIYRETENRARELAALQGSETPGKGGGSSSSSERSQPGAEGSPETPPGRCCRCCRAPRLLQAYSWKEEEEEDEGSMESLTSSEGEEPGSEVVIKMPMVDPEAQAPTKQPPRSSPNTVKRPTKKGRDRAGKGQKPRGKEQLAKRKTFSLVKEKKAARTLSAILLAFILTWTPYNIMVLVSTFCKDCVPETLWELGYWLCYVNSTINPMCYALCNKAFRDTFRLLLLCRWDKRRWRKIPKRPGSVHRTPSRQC
Records with an inconclusive call do not appear. Calls of active or inactive are those of the source. The call rests on the fitted dose curve.
Labels: true = active, false = inactive

> print(dat)
                                    molecule    cat
 1                     O=C(O)CCCCCCCCCC(=O)O  false
 2  CCCCC(CC)COC(=O)CCCCC(=O)OCc1ccccc1 (configuration not stated)  false
 3  CC(C)(Cc1c[nH]c2ccccc12)NCC(O)COc1ccccc1C#N (configuration not stated)  false
 4  COc1ccc(CCN(C)CCCN2CCc3cc(OC)c(OC)cc3CC2=O)cc1OC  false
 5                              Nc1ccc(F)cc1  false
 6                      C=C[Si](OCC)(OCC)OCC  false
 7                        [Cl][Au]([Cl])[Cl]  false
 8  CO/N=C1\CN(c2nc3c(cc2F)c(=O)c(C(=O)O)cn3C2CC2)CC1CN (configuration not stated)  false
 9                            COCCOC(=O)CC#N  false
10                           CCCOC(OCCC)OCCC  false
11                   CC(C)(c1ccccc1)c1ccccc1   true
12           CC(O)(c1ccc(Cl)cc1)c1ccc(Cl)cc1  false

* * *

target: Beta-2 adrenergic receptor (Homo sapiens); experiment: Adrenergic beta2 receptor (ADRB2) small molecule antagonists, cell-based qHTS assay (AID 1963592); settings: CHO-ADRB2 cells, isoproterenol-stimulated cAMP HTRF ratio, 0.5 h; series mostly up to 92.4 µM; further: on the % scale 0 is the no-effect control and ±100 the full control effect; nearly all actives have a fitted effect of over 50% in size
Records with an inconclusive call do not appear. The source made the active and inactive calls. The call rests on the fitted dose curve.
endpoint: activity change, negative = inhibition

> print(dat)
                              smiles.string                                endpoint                 observed.result
1  CC1=CC(=C(c2ccc(N)cc2)c2ccc(N)cc2)C=CC1=N  activity change, negative = inhibition  -4.98% [at 8.39 µM] (inactive)
2                                     COC=O  activity change, negative = inhibition   14.4% [at 8.39 µM] (inactive)
3                      N=C(N)N1CCc2ccccc2C1  activity change, negative = inhibition  -8.55% [at 8.39 µM] (inactive)

* * *

experiment: Nuclear factor erythroid 2-related factor 2/antioxidant responsive element (Nrf2/ARE) small molecule agonists: luciferase reporter gene qHTS assay in human keratinocytes (AID 1919969); details: KeratinoSens HaCaT ARE-luciferase, luminescence, 24 h; series mostly up to 92.4 µM; further: nearly all actives have a fitted effect of over 35% in size
Records with an inconclusive call do not appear. Activity calls are given as the source filed them. The call rests on the fitted dose curve.
Labels: true (1) (active), false (0) (inactive)

> print(dat)
                                    compound        cat
 1    COC1=C(OC)C(=O)C(CCCCCCCCCCO)=C(C)C1=O   true (1)
 2  CC(C)CCCC(C)CC=O (configuration not stated)  false (0)
 3                    CCN(Cc1ccccc1)c1ccccc1  false (0)
 4               C=C(C)[C@@H]1CC=C(C)C(=O)C1  false (0)
 5  CCC1OCC(COc2ccc(Oc3ccccc3)cc2)O1 (configuration not stated)   true (1)
 6        CC(O)CN (configuration not stated)  false (0)
 7          CN(C)C(=O)Oc1cccc([N+](C)(C)C)c1  false (0)
 8                        CCCCOC(=O)CCC(C)=O  false (0)
 9    CCN(CC)CCNc1ccc(CO)c2sc3ccccc3c(=O)c12   true (1)
10    c1ccc2c(c1)-c1ccc3ccc4cccc5cc-2c1c3c45   true (1)
11  O=C1OC(=O)c2cc(-c3ccc4c(c3)C(=O)OC4=O)ccc21   true (1)
12                     CCCCCCOc1ccccc1C(N)=O  false (0)
